target: Integrin alpha-4 (Homo sapiens) (UniProt P13612); test: VLA-4 ligand competition with LDV-FITC, dose response, orthogonal assay, U937 cells, flow cytometry, set 1 (AID 588412); conditions: flow cytometry MCF
Sequence (P13612 whole entry, looked up): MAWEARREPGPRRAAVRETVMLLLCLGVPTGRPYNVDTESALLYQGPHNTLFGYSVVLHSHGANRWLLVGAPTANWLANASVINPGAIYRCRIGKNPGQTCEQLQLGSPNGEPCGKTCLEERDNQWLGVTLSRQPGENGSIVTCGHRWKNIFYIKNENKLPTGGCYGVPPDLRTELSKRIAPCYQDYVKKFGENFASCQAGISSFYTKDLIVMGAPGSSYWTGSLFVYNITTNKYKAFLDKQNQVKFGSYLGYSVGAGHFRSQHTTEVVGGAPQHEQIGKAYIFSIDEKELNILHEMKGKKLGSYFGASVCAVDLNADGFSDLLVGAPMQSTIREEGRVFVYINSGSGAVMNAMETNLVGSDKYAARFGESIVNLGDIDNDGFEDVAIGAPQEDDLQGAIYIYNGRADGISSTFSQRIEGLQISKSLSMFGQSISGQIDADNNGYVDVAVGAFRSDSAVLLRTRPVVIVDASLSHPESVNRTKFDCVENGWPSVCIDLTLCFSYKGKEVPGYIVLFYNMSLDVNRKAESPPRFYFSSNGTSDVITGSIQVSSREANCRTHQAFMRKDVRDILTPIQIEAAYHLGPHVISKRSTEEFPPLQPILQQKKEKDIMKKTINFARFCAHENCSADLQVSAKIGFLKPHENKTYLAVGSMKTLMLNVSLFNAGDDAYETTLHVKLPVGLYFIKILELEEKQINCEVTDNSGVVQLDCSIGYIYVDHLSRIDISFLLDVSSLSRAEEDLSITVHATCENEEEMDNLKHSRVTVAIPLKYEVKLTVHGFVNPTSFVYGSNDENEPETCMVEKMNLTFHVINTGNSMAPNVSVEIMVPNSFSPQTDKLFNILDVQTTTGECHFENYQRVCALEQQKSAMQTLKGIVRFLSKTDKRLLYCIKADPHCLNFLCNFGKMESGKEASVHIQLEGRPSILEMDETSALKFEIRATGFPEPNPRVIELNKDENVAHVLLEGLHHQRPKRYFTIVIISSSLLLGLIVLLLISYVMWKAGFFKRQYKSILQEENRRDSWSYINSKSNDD
The source made the active and inactive calls.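 Rule for the calls: active = fitted EC50 below about 63 µM, meaning a log molar EC50 under -4.2; inactive = the rest.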
Select the matching outcome among active, inactive

Some solved cases for reference:
c1ccc2c(-c3ccc(OCCN4CCCC4)cc3)c(-c3ccsc3)sc2c1 :: active
COc1ccc(-c2sc3ccccc3c2-c2ccc(OCCN(C)C)cc2)cc1 :: active
CN(C)CCOc1ccc(-c2c(-c3ccccc3)sc3ccccc23)cc1 :: active

Input line: Just curious, what result did `c1ccc2c(-c3ccc(OCCN4CCCCC4)cc3)c(-c3ccsc3)sc2c1` get here?
Output line: inactive

Input line: Please do the same for `COc1cccc(-c2sc3ccccc3c2-c2ccc(OCCN3CCCC3)cc2)c1` as well.
Output line: active

Input line: Another compound to check: `COc1cccc(-c2sc3ccccc3c2-c2ccc(OCCN(C)C)cc2)c1`
Output line: active

Input line: // repeat for `c1ccc(-c2sc3ccccc3c2-c2ccc(OCCN3CCCC3)cc2)cc1` and report
Output line: active
